Reported melting point is given for each of the following compounds.
observed_property: melting point

- Cn1nc(-c2c(F)cccc2Cl)nc1-c1ccc(CO)c(Cl)c1: 111 to 113 °C
- COc1cc2cc(N(C)C)sc2cc1OCc1ccccc1: 140 to 142 °C
- COC1=C(OC)C(=O)c2cc(NC(C)=O)ccc2C1=O: 226 to 228 °C
- CC(C)(C)c1ccc(/C=C/C(=O)Nc2ccc3c(c2)CCCC3)cc1: 198 to 199 °C
- CCCCc1ncc(/C=C(\Cc2cccs2)C(N)=O)n1Cc1ccccc1Cl: 182 to 184 °C
- CC(C)COc1ccc2c(n1)CC(c1ccccc1)CC2=O (stereo unspecified): 157 to 158 °C
- CC(=O)Nc1nc2c(s1)-c1nc(N3CCCC3=O)ncc1CC2: > 160 °C
- COc1cc2c(c(Cl)c1Cl)C(=O)C(C)(C)C2c1ccccc1 (stereo unspecified): 146 to 148 °C
- c1ccc(Oc2cnccc2N2CCNCC2)cc1: 74 to 77 °C
- CCOC(=O)C1=CCCCC1S(=O)(=O)Nn1cccc1C (stereo unspecified): 100 to 101 °C
- CC1OC(O)CC(O)C1O (stereo unspecified): 102 to 105 °C

---

Reported melting point is given for each of the following compounds.
observed_property: melting point

* CC(C)(C)c1cc(C=C(C#N)C#N)cc(Cl)c1O | 173 °C
* CCCc1c(C#N)c(-c2ccc(C#N)cc2)c(C)n1Cc1cnc(Cl)c(COC(=O)CCC(=O)O)c1 | 167 to 168 °C
* O=C1Cc2cc(C(=O)c3ccccc3)ccc2N1 | 204 to 205 °C
* CC(C)(C)OC(=O)N1CCN(Cc2ccccc2)C(=O)C1 | 89 to 90 °C
* CC1SC(=O)NN=C1c1ccc2c(c1)C(=NNC1CCCCC1)C(=O)N2 (stereo unspecified) | 217 °C
* Nc1cc2c(Nc3ccc(F)c(C(F)(F)F)c3)ncnc2cn1 | 252 to 255 °C

---

Reported melting point is given for each of the following compounds.
observed_property: melting point

* COc1ccc(C(=O)Cc2ccccc2)cc1OC1CCCC1 | 117 to 119 °C
* S=C(NCCCN1CCN(Cc2ccc(Cl)cc2)CC1)Nc1ccccc1 | 155 to 156 °C
* Cc1cccc(-c2n[nH]cc2-c2ccc(F)c(-c3cn[nH]c3)c2)n1 | 110 to 112 °C
* COc1ccc(S(=O)(=O)C(CCCCc2ccccc2)C(=O)NO)cc1OC (stereo not given) | 180 to 188 °C
* Nc1ccc(N2CCCC2)nn1 | 209 to 211 °C
* COCCNC(=O)c1cccc(-c2cccc3oc(Cc4cccc(C(F)(F)F)c4)cc23)c1 | 91 to 92 °C
* CC(C)c1cccc(C(C)C)c1N=c1cccc(-c2ccccc2)[nH]1 | 142 to 144 °C
* COc1ccc(-c2cnc3cc4cnn(C(C)=O)c4cc3n2)cc1F | 261 to 265 °C
* C=C1C=C(Oc2cc(C(=O)Nc3c(Cl)cncc3Cl)ccc2OC)C1(F)F | 102 to 104 °C
* Cc1oc(-c2ccc(Cl)cc2)nc1COc1cccc(/C=C/C(C)n2oc(=O)[nH]c2=O)c1 (stereo not given) | 172 to 174 °C
* CCOC(=O)C(=O)Nc1cc(Cl)c(Cl)c(Cl)c1[N+](=O)[O-] | 84 °C
* CCC(CC)c1[nH]c(C)c(C(C)=O)c1C | 186 to 189 °C
* C=CC1(C=C)OC(C(=O)O)Oc2ccc(Cl)cc21 (stereo not given) | 144 °C
* NS(=O)(=O)c1ccc(-c2cnn(CC3=CCCCC3)c(=O)c2-c2ccc(F)cc2)cc1 | 192 to 193 °C
* CCCc1c(OCCCCc2ccc3cc(OCc4ccccc4)c(OCc4ccccc4)cc3c2)ccc(C(=O)OCc2ccccc2)c1O | 87 to 89 °C
* Cc1sc(C)c2c1CCC=C2c1cn(C(c2ccccc2)(c2ccccc2)c2ccccc2)cn1 | 205 to 207 °C
* COc1c(F)c(F)c([N+](=O)[O-])c2c(=O)c(C(=O)O)cn(C3CC3)c12 | 216 to 221 °C
* NC(=O)c1ncn2c1NCC=C2c1cccc(C(F)(F)F)c1 | 192 to 194 °C
* Cc1ccc(C(=O)Nc2ccccc2)cc1NC(=S)Nc1cc(Cl)cc(Cl)c1 | 182 to 184 °C
* CS(=O)(=O)N1CCC(Nc2nc(Nc3cccc(C(F)(F)F)c3)nc(OCc3ccccn3)n2)CC1 | 160 to 162 °C

---

Reported melting point is given for each of the following molecules.
observed_property: melting point

* NC(CCNCCC(N)=NO)=NO | 180 °C
* N#CCCNC(=O)c1n[nH]cc1NC(=O)c1ccoc1 | 250 to 252 °C
* COC(=O)c1cc(-c2nc(COc3ccc(CO)cc3OC)c(C)o2)ccc1C | 145 to 146 °C
* C#CCOc1cc2c(=O)cc(C(=O)OCC)n(CC#C)c2ccc1=O | 169 °C
* CC(=O)Nc1ccc(CCC(=O)O)cc1 | 127 to 138 °C
* COC(=O)C(C)n1nnc2ccc(OCc3ccccc3)cc21 (stereo not given) | 88 to 91.5 °C
* CC(=O)OC1CSC(Oc2ccc(C)nc2[N+](=O)[O-])C(OC(C)=O)C1OC(C)=O (stereo not given) | 154 °C
* COc1ccc(S(=O)(=O)N2CCc3cccc(-c4cc(OC)c(OC)c(OC)c4)c32)cc1 | 202 to 205 °C
* Cn1c(CC#N)ccc1C(=O)c1ccc(C(F)(F)F)cc1 | 95 to 97.5 °C
* Cc1cc(SC2=C(O)CC(C3CCCC3)(C3CCCC3)OC2=O)c(C(C)(C)C)cc1N | 163 to 165 °C

---

observed_property: melting point

- Cc1nnc2n1-c1ccccc1C(c1ccc(Cl)cc1)=NC2NN(C(=O)NN)c1ccccc1 (stereo not given): 175 to 177 °C
- O=C(NCCN1C(=O)C2(COc3cc4c(cc32)OCO4)c2ccccc21)c1ccccc1OC(F)(F)F (stereo not given): 183 to 184 °C
- NC(=O)C(O)C1OC(n2cnc3c(N)ncnc32)C(O)C1O (stereo not given): 220 to 222 °C
- COc1ccc(-c2nc(Sc3ccc(C(F)(F)F)cc3[N+](=O)[O-])[nH]c2-c2ccc(OC)cc2)cc1: 264 to 266 °C
- CCOC(=O)c1sc(-n2ccc(OCCC3CC3)cc2=O)nc1C: 188 to 190 °C

---

Reported melting point is given for each of the following compounds.
observed_property: melting point

• CC(C)(C)OC(=O)N[C@]1(C)CC[C@H](CS(=O)(=O)c2ccc(S(C)(=O)=O)cc2)C1(C)C = 200 to 203 °C
• CCSc1cc(O)nc(N(C)C)n1 = 184 to 185 °C
• Cc1nc2ccccc2c(=O)n1CCCOS(C)(=O)=O = 148 to 150 °C
• CC1=C(C(=O)OC(C)C)[C@@H](c2cccc(Cl)c2)NC(=O)N1C(N)=O = 131 to 133 °C
• CC(C)Cn1c(=O)n(C)c(=O)c2c(Sc3ccc(N)cn3)c(Cc3cccc4ccccc34)sc21 = 208 to 209 °C
• O=C(Nc1ccc(CN2CCCCC2)cc1)C(Br)C(Br)c1ccc(-c2ccc(Cl)cc2)cc1 (stereo not given) = 145 to 150 °C
• Cc1cc(C)nc(OC(C(=O)O)C(C)(C)C)n1 (stereo not given) = 167 to 169 °C
• Cc1ccc([C@@H]2C[C@H]3C=C(c4n[nH]c(-c5ccc(F)cc5)c4-c4ccncc4)CCN3C2)cc1 = 222 to 225 °C
• Cc1cc(Br)cnc1CCCCNc1ncc(Cc2cccnc2)cc1[N+](=O)[O-] = 82 to 84 °C
• O=C(O)c1ccc2[nH]c(=O)n(CCCCN3CC=C(c4ccccc4)CC3)c(=O)c2c1 = 237 °C
• COC(=O)C(C)(COS(C)(=O)=O)C(=O)c1ccc(Cl)cc1 (stereo not given) = 85 to 86 °C
• COc1cccc(CCC(=O)C2C(=O)CCC2=O)c1O = 108 to 109 °C
• Nc1cc(N2CCC(O)CC2)c(F)cc1[N+](=O)[O-] = 238 to 239 °C
• CC(C)n1nc(-c2c(-c3ccccc3)nn3ccc(N4CCN(c5ccccc5)CC4)cc23)ccc1=O = > 240 °C
• COC(=O)CC(CC(=O)OC)Sc1cc(OC)ccc1[N+](=O)[O-] = 91 °C
• CCN1CCN(Cc2nc(-c3ccc4c(c3)Nc3ccccc3S4)cs2)CC1 = 182 to 184 °C
• CCN(CC)c1ccc(C2(c3ccc(N(C)C)cc3N(C)C)OC(=O)c3ccccc32)cc1 (stereo not given) = 168 to 170 °C
• Ic1cnc(-c2ccccn2)[nH]1 = 175 to 179 °C
• CCNC(=O)c1cc(N)ccc1Oc1cncc(Cl)c1 = 126 to 128 °C
• O=C1N=c2cccc(OCCN3CCC(Cc4ccccc4)CC3)c2=N1 = 153 to 154 °C
